tested on: Fibroblast; test: Multiplex assay against human fibroblast; type: toxicity, cell-based; details: 24 h, 1 µM, compound concentration 1 uM, replicate 1
Can you tell me Population Fragmented Nuclei (%) for the items I'm about to list?
Expressed in %, but write only the number.

Which measured Population Fragmented Nuclei (%) value corresponds to CC(C)OC(=O)N1CCC(Oc2ncnc3c2cnn3-c2ccc(S(C)(=O)=O)cc2F)CC1 ?
20

// same read-out, input: CC(C)CC(=O)Nc1[nH]nc2c1CN(C(=O)C1CCN(C)CC1)C2(C)C
20

Queued: CCc1nn(CCCN2CCN(c3cccc(Cl)c3)CC2)c(=O)n1CCOc1ccccc1.Cl [NEFAZODONE HYDROCHLORIDE]
20
